- Tested on: SD rat peripheral blood lymphocyte counts
- assay.text: Effect of S1P1 receptor agonists on rat vein (peripheral) blood lymphocyte counts
- Assay type: in vivo
- condition.set: Table 3; 10 mg/Kg intragastric; 1 h
readout.type: LYM 1 h

Observe how each entry below is paired with its result.
• NC(CO)(CO)CC(O)c1ccc(Oc2ccc(-c3coc(C4CC4)n3)cc2)cc1 (stereo not drawn) = 4.67 ± 1.50 ×10^9/L
• NC(CO)(CO)CCc1ccc(Oc2ccc(-c3coc(C4CC4)n3)cc2)cc1 = 6.27 ± 0.78 ×10^9/L
• CCCCCCCCc1ccc(CCC(N)(CO)CO)cc1 [FTY720, reference compound] = 3.18 ± 0.52 ×10^9/L
• CCCc1nc(-c2ccc(Oc3ccc(C(O)CC(N)(CO)CO)cc3)cc2)co1 (stereo not drawn) = 8.57 ± 2.55 ×10^9/L
• CC(C)c1nc(-c2ccc(Oc3ccc(C(O)CC(N)(CO)CO)cc3)cc2)co1 (stereo not drawn) = 5.60 ± 0.90 ×10^9/L

Next:
Input: Tell me LYM 1 h reported for CCc1nc(-c2ccc(Sc3ccc(CCC(N)(CO)CO)cc3)cc2)co1
Output: 4.63 ± 0.61 ×10^9/L

###

- Test system: SD rat heart rate
- assay.text: Effect of S1P1 receptor agonists on rat heart rate
- Format: in vivo
- condition.set: Table 4; intragastric; 6 h
Reported heart rate 6 h is given for each of the following compounds.

* CCc1nc(-c2ccc(Sc3ccc(CCC(N)(CO)CO)cc3)cc2)co1 | 368.56

Input: Tell me heart rate 6 h reported for CCCCCCCCc1ccc(CCC(N)(CO)CO)cc1 [FTY720, reference compound]
Output: 280.13

Input: Tell me heart rate 6 h reported for NC(CO)(CO)CCc1ccc(Oc2ccc(-c3coc(C4CC4)n3)cc2)cc1
Output: 335.50

Input: Tell me heart rate 6 h reported for CCCc1nc(-c2ccc(Oc3ccc(C(O)CC(N)(CO)CO)cc3)cc2)co1 (stereo not drawn)
Output: 344.36

Input: Tell me heart rate 6 h reported for CC(C)c1nc(-c2ccc(Oc3ccc(C(O)CC(N)(CO)CO)cc3)cc2)co1 (stereo not drawn)
Output: 343.63

Input: Tell me heart rate 6 h reported for NC(CO)(CO)CC(O)c1ccc(Oc2ccc(-c3coc(C4CC4)n3)cc2)cc1 (stereo not drawn)
Output: 366.88

###

Reported heart rate 0 is given for each of the following compounds.
- Test system: SD rat heart rate
- assay.text: Effect of S1P1 receptor agonists on rat heart rate
- Format: in vivo
- Design: unit not given beside the values
- condition.set: Table 4; intragastric; time 0, before administration
When you answer, write just the number.

• NC(CO)(CO)CCc1ccc(Oc2ccc(-c3coc(C4CC4)n3)cc2)cc1 [Syl955] = 428.63
• CC(C)c1nc(-c2ccc(Oc3ccc(C(O)CC(N)(CO)CO)cc3)cc2)co1 (stereo not drawn) [Syl962] = 390.00
• CCCCCCCCc1ccc(CCC(N)(CO)CO)cc1 [FTY720, reference compound] = 379.42
• NC(CO)(CO)CC(O)c1ccc(Oc2ccc(-c3coc(C4CC4)n3)cc2)cc1 (stereo not drawn) [Syl963] = 395.50
• CCCc1nc(-c2ccc(Oc3ccc(C(O)CC(N)(CO)CO)cc3)cc2)co1 (stereo not drawn) [Syl961] = 389.75

Next:
Input: Tell me heart rate 0 reported for CCc1nc(-c2ccc(Sc3ccc(CCC(N)(CO)CO)cc3)cc2)co1 [Syl974]
Output: 381.50
